Target: recombinant hGPC3-His (human) (UniProt P51654)
Test: Biacore SPR, antibody captured, hGPC3-His analyte, 1:1 model
The binders listed here are annotated with their kon.
The response must be a number in M⁻¹ s⁻¹ with no trailing unit.

Previously resolved entries follow.
>>> experimental_value("ARD-103 antibody (IgG) (antibody, V domains shown) VH: QVQLVESGAEVKKPGASVKVSCKASGYTFTDYEMHWVRQAPGQGLEWMGALDPKTGDTAYSQKFKGRVTLTADKSTSTAYMELSSLTSEDTAVYYCTRFYSYTYWGQGTLVTVSS VL: DVVMTQSPLSLPVTPGEPASISCRSSQSLVHSNGNTYLHWYLQKPGQSPQLLIYKVSNRFSGVPDRFSGSGSGTDFTLKISRVEAEDVGVYYCSQNTHVPPTFGQGTKLEIKR")
48100
>>> experimental_value("P6-D11 IgG variant of ARD-103 (antibody, V domains shown) VH: QVQLVQSGAEVKKPGASVKVSCKASGYTFTDYEMHWVRQAPGQGLEWMGALDPKTGDEAYSQKFKGRVTLTADKSTSTAYMELSSLTSEDTAVYYCTRFYSYTYWGQGTLVTVSS VL: DVVMTQSPLSLPVTPGEPASISCRSEQSLVHSNGNTYLHWYLQKPGQSPQLLIYKVSNRFSGVPDRFSGSGSGTDFTLKISRVEAEDVGVYYCVQNGLFPPTFGQGTKLEIKR")
107000
>>> experimental_value("P1-E6 IgG variant of ARD-103 (antibody, V domains shown) VH: QVQLVESGAEVKKPGASVKVSCKASGYTFTDYEMHWVRQAPGQGLEWMGALDPKTGDTALSQKFKGRVTLTADKSTSTAYMELSSLTSEDTAVYYCTRFYSYTYWGQGTLVTVSS VL: DVVMTQSPLSLPVTPGEPASISCRSSSSLVHSNGNTYLHWYLQKPGQSPQLLIYKVSNRFSGVPDRFSGSGSGTDFTLKISRVEAEDVGVYYCLQNGIVPPTFGQGTKLEIKR")
75600
>>> experimental_value("P1-A1 IgG variant of ARD-103 (antibody, V domains shown) VH: QVQLVESGAEVKKPGASVKVSCKASGYTFTDYEMHWVRQAPGQGLEWMGALDPKTGDTAYSQKFQGRVTLTADKSTSTAYMELSSLTSEDTAVYYCTRFYSYTYWGQGTLVTVSS VL: DVVMTQSPLSLPVTPGEPASISCRSSQSLVRSNGNTYLHWYLQKPGQSPQLLIYKVSNRFSGVPDRFSGSGSGTDFTLKISRVEAEDVGVYYCVQNTHVPPTFGQGTKLEIKR")
110000
>>> experimental_value("P3-F7 IgG variant of ARD-103 (antibody, V domains shown) VH: QVQLVESGAEVKKPGASVKVSCKASGYTFTDYEMHWVRQAPGQGLEWMGALDPKTGDTAYSQKFKGRVTLTADKSTSTAYMELSSLTSEDTAVYYCTRFYSYTYWGQGTLVTVSS VL: DVVMTQSPLSLPVTPGEPASISCRSSQSLVHSNGNTYLQWYLQKPGQSPQLLIYKVSNRFSGVPDRFSGSGSGTDFTLKISRVEAEDVGVYYCVQVTHVPPTFGQGTKLEIKR")
85600

Prompt: State its kon for this binder: P1-G5 IgG variant of ARD-103 (antibody, V domains shown) VH: QVQLVESGAEVKKPGASVKVSCKASGYTFTDYEMHWVRQAPGQGLEWMGAIDPKTGDTAYSQKFKGRVTLTADKSTSTAYMELSSLTSEDTAVYYCTRFYSYTYWGQGTLVTVSS VL: DVVMTQSPLSLPVTPGEPASISCRSSQSLVHSNGNTYLQWYLQKPGQSPQLLIYKVSNRFSGVPDRFSGSGSGTDFTLKISRVEAEDVGVYYCSQVTHVPPTFGQGTKLEIKR
Completion: 78500

This collection of values is drawn from patent US20250090680A1.
